tested on: HCT-15
Rule: GI50 below 20 µM gives satisfied. Equal to or above 20 µM gives not satisfied.

- compound: "O=C1NC(c2ccccc2)C1N(Cc1ccccc1)Cc1ccccc1 (stereo not given)"
  category label: "not satisfied"
- compound: "O=C1Nc2ccccc2/C1=N/Nc1ccc([N+](=O)[O-])cc1"
  category label: "not satisfied"
- compound: "C=CCCC(=O)CC(=O)OCc1ccccc1"
  category label: "not satisfied"
- compound: "Clc1ccc(C(Cc2ccccc2)c2c(Cl)nc(N3CCNCC3)nc2Cl)cc1 (stereo not given)"
  category label: "satisfied"
- compound: "C=CC/N=C(\\S)Nc1sc2c(c1C(=O)OCC)CC(C)CC2 (stereo not given)"
  category label: "not satisfied"
- compound: "COc1ccccc1/N=N/c1c(-c2ccccc2)nn(C(=O)CC(=O)Nc2ccccc2Cl)c1-c1ccccc1"
  category label: "not satisfied"
- compound: "O=C(CN1CCCC1)Nc1ccc2c(c1)C1Oc3ccccc3CC1CO2 (stereo not given)"
  category label: "satisfied"
- compound: "C/C=C(\\C)C(=O)O[C@@H]1CC(C)(C)CC2C3=CCC4[C@]56CC[C@](O)(OC5)C(C)(C)C6CC[C@@]4(C)C3(C)CC[C@]21C(=O)O (stereo not given in full)"
  category label: "not satisfied"
- compound: "COc1ccc(/C=C2\\N=C(N3CCCCC3)NC2=O)cc1"
  category label: "not satisfied"

====

test system: OVCAR-4; test: NCI tumour cell line growth inhibition, 48 h
The source made the active and inactive calls. Cut-off read from the data, not from the text of the source: active = GI50 up to about 1.1 µM and inactive = higher.
Listing of recorded GI50 by entry.

- molecule: "O=C1CCc2ccccc2O1 [DIHYDROCOUMARIN]"
  GI50: "> 100 µM (inactive)"
- molecule: "CC1=NN(C(=O)Cc2ccccc2)C(=O)/C1=C\\c1ccco1"
  GI50: "> 100 µM (inactive)"
- molecule: "O=C1/C(=N/c2ccc(Nc3ccccc3)cc2)Oc2ccccc21"
  GI50: "2.33 µM (inactive)"
- molecule: "Cc1ccc(/N=N/N(C)C(=O)C(C)N)cc1 (configuration not stated)"
  GI50: "> 100 µM (inactive)"
- molecule: "CC(C)(C)OC(=O)N1C(C2=COc3ccccc3O2)=COc2cccnc21"
  GI50: "1.6 µM (inactive)"
- molecule: "COc1cc(C2c3cc4c(cc3OC(Nc3ccccc3)C2C)OCO4)cc(OC)c1O (configuration not stated)"
  GI50: "11.8 µM (inactive)"
- molecule: "C=CC/N=C(\\S)Nc1sc2c(c1C(=O)OCC)CC(C)CC2 (configuration not stated)"
  GI50: "35.2 µM (inactive)"
- molecule: "S=C1Cc2cc3ccccc3nc2-c2ccccc2N1"
  GI50: "12.4 µM (inactive)"
- molecule: "N#CC1=C(N)n2c(s/c(=C\\c3ccc(Cl)cc3)c2=O)=C(c2nc3ccccc3[nH]2)C1c1ccc(Cl)cc1 (configuration not stated)"
  GI50: "2.01 µM (inactive)"
- molecule: "CCOC(=O)C(=O)Nc1cc(Cl)ccc1Cl"
  GI50: "> 100 µM (inactive)"
- molecule: "Cc1ccc(O)c(C2=NNC(c3cccc(Cl)c3)C2)c1 (configuration not stated)"
  GI50: "24.4 µM (inactive)"
- molecule: "C/C(=C\\CNc1ncnc2[nH]c(Cl)nc12)CO"
  GI50: "> 100 µM (inactive)"
- molecule: "CSCC[C@@H]1C(=O)N(C)[C@H](C(C)(C)C)N1C(=O)c1ccccc1"
  GI50: "> 100 µM (inactive)"
- molecule: "COC(=O)c1c(C)nc(C)c(NO)c1-c1ccccc1C(F)(F)F"
  GI50: "20 µM (inactive)"
- molecule: "COc1ccc(/C(C=O)=C(\\Cl)c2ccc(OC)c(OC)c2)cc1"
  GI50: "> 100 µM (inactive)"
- molecule: "O=c1o[nH]/c(=N/c2ccccc2)n1-c1ccccc1"
  GI50: "> 100 µM (inactive)"
- molecule: "COC(=O)Nc1nc2ccc(S(=O)(=O)SC)cc2[nH]1"
  GI50: "11.9 µM (inactive)"
- molecule: "O=C(CCC(=O)N/N=C/c1ccccc1O)N/N=C/c1ccccc1O"
  GI50: "> 100 µM (inactive)"
- molecule: "COc1ccc(NC2=CC(=O)C(=O)c3ccccc32)nn1"
  GI50: "1.41 µM (inactive)"
- molecule: "CCC1=C(C(C)=O)[C@@H]2CCCCC[C@@H](C(=O)OC)C2C1=O (some centres not stated)"
  GI50: "> 100 µM (inactive)"
- molecule: "CC(C)c1cccc2sc(NC(=O)C(=O)C(C#N)c3cccc4ccccc34)nc12 (configuration not stated)"
  GI50: "29.8 µM (inactive)"
- molecule: "CC1=C(C(=O)OC(C)C)C(c2ccccc2[N+](=O)[O-])C(C(=O)OC(CO[N+](=O)[O-])CO[N+](=O)[O-])=C(C)N1 (configuration not stated)"
  GI50: "2.12 µM (inactive)"

====

test system: LOX IMVI; test: NCI tumour cell line growth inhibition, 48 h
Active and inactive are the calls of the source. No stated cut-off is given here; in the data, active = GI50 up to about 1.1 µM and inactive = higher.

- compound: "CC(=O)Nc1c(C)cc2c(nc3n2CCC3OC(C)=O)c1[N+](=O)[O-] (centres undefined)"
  GI50: "> 100 µM (inactive)"
- compound: "C/C(=N/Nc1nc(C)cc(O)n1)C(=O)O"
  GI50: "> 100 µM (inactive)"
- compound: "COc1cc(C)c2c(c1C=O)Oc1c(c(C)c(O)c3c1C(O)OC3=O)OC2=O (centres undefined)"
  GI50: "28.4 µM (inactive)"
- compound: "O=C(Cc1ccccc1)N/N=C(\\C1=Nc2ccc([N+](=O)[O-])cc2NC1O)C(O)c1ccc([N+](=O)[O-])cc1 (centres undefined)"
  GI50: "25.8 µM (inactive)"
- compound: "CCOC(=O)C1(Cc2ccc3ccccc3c2)CCCCCN1 (centres undefined)"
  GI50: "20.1 µM (inactive)"
- compound: "O=C1C(S(=O)(=O)c2ccccc2)=C(CS(=O)(=O)c2ccccc2)[C@@H](OCc2ccccc2)[C@@H]1OCc1ccccc1"
  GI50: "15.8 µM (inactive)"
- compound: "CC1(C)C(OC(=O)c2ccccc2)C[C@]23CCC[C@](C)(C[C@@H](O)C12)C3 (some centres undefined)"
  GI50: "17 µM (inactive)"
- compound: "O=C(COc1ccccc1Cl)N1N=C(c2ccccc2)CC1(O)c1ccccc1 (centres undefined)"
  GI50: "16.7 µM (inactive)"
- compound: "CCOC(=O)Cn1c(=O)c2nc(SC)sc2n(CC)c1=S"
  GI50: "> 100 µM (inactive)"

====

tested on: SF-539; assay: NCI tumour cell line growth inhibition, 48 h
Activity calls are given as the source filed them. No stated cut-off is given here; in the data, active = GI50 up to about 1.1 µM and inactive = higher.
Below, each entry is listed with its recorded GI50.
measured parameter: GI50

- compound: "O=c1[nH]nc(Cc2ccccc2)n1/N=C/c1ccc([N+](=O)[O-])cc1"
  tested system: "SF-539"
  test result: "> 100 µM (inactive)"
- compound: "C/C(=C1\\C(=O)C(c2ccccc2)N(c2ccccc2)C1=O)c1ccc(Cl)cc1 (stereo not drawn)"
  tested system: "SF-539"
  test result: "21.3 µM (inactive)"
- compound: "O=c1c2cc(I)ccc2nc(-c2cccs2)n1/N=C/c1ccccc1"
  tested system: "SF-539"
  test result: "> 100 µM (inactive)"
- compound: "Cc1ccc(SC(CCC(Sc2ccc(C)cc2)Sc2ccc(C)cc2)Sc2ccc(C)cc2)cc1"
  tested system: "SF-539"
  test result: "> 100 µM (inactive)"
- compound: "NNC(=O)/C(NC(=O)c1ccccc1)=C(\\N)c1cccc([N+](=O)[O-])c1"
  tested system: "SF-539"
  test result: "> 100 µM (inactive)"
- compound: "Cc1ccc(S(=O)(=O)NNC(=O)Nc2cccc(C(F)(F)F)c2)cc1"
  tested system: "SF-539"
  test result: "> 100 µM (inactive)"
- compound: "CC1=C[C@]2(O)C(=O)[C@H](C)C[C@H]3[C@@H](CC[C@@](C)(O)/C=C\\2C1=O)C3(C)C"
  tested system: "SF-539"
  test result: "22.4 µM (inactive)"
- compound: "Cc1ccc(N2C(=O)C(=CN)C(=O)N(c3ccc(C)cc3)C2=O)cc1"
  tested system: "SF-539"
  test result: "> 100 µM (inactive)"

====

system: DU-145; assay: NCI tumour cell line growth inhibition, 48 h
Calls of active or inactive are those of the source. Cut-off read from the data, not from the text of the source: active = GI50 up to about 1.1 µM and inactive = higher.
Reported GI50 by item:

- compound: "C1=CN2C[n+]3ccc4ccccc4c3N=C2c2ccccc21"
  GI50: "6.62 µM (inactive)"
- compound: "Cc1nc2ccccc2nc1-c1ccc(/N=[N+](\\[O-])c2ccc(-c3nc4ccccc4nc3C)cc2)cc1"
  GI50: "> 94.4 µM (inactive)"
- compound: "Cc1cc(=O)oc2cc(OC(=O)Nc3ccccc3)ccc12"
  GI50: "76.9 µM (inactive)"
- compound: "CO/C=C(/C(=O)OC)[C@@H]1C[C@@H]1c1ccc2ccccc2c1"
  GI50: "38.9 µM (inactive)"
- compound: "CC(=O)N1C=Cc2c(c(C)c3c([nH]c4ccccc43)c2C)C1"
  GI50: "11.5 µM (inactive)"
- compound: "Cc1ccc(SCC(CF)OC(C)n2cnc3c(O)nc(N)nc32)cc1 (stereo unspecified)"
  GI50: "> 100 µM (inactive)"
- compound: "O=[N+]([O-])C(=C(\\Cl)NCCO)/C(Cl)=C(/Cl)Br"
  GI50: "7.74 µM (inactive)"
- compound: "Clc1ccc(/C=N/C23CC4CC(CC(C4)C2)C3)cc1Cl"
  GI50: "> 10 µM (inactive)"
- compound: "CCN(CC)Cc1sc2nc3ccccc3n2c1-c1ccc(OC)cc1"
  GI50: "35.4 µM (inactive)"
- compound: "CCOC1=C/C(=N\\Nc2ccc([N+](=O)[O-])cc2)CCC1"
  GI50: "> 100 µM (inactive)"
- compound: "COc1ccccc1/C=C1/Sc2scc(CC(=O)Nc3ccccc3)[n+]2C1=O"
  GI50: "27.7 µM (inactive)"
